Please respond with reported IC50 for every item in the list.
biological target: Tyrosine-protein kinase BTK (Homo sapiens, UniProt Q06187)
Sequence (Q06187 whole entry): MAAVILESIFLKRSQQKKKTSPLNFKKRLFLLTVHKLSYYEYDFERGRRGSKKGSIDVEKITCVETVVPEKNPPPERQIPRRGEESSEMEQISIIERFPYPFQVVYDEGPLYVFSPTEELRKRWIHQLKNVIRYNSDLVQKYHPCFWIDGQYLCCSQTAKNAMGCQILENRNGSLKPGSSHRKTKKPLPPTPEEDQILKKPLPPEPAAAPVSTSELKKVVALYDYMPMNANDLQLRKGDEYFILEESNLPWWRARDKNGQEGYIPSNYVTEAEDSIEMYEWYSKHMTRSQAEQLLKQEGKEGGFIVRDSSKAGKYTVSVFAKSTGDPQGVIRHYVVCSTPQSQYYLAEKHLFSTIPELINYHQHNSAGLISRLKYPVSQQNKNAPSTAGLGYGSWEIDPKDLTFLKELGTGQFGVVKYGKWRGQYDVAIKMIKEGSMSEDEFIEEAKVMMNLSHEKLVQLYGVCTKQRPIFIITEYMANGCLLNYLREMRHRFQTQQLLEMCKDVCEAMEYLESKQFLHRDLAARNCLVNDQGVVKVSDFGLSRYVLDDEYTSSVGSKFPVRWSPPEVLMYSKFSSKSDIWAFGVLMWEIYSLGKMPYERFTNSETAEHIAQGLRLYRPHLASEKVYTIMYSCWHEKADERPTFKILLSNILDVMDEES
Quick reminder: number only, in µM, skip the unit.

// lookup IC50 for Cc1c(-c2cn(C)c(=O)c(Nc3ccc(C4C(=O)N(C)CCN4C)cc3)n2)cccc1N1Cc2cc(N3CCCCC3)ccc2C1=O (stereo not drawn)
0.245

What do you get for Cc1c(-c2cn(C)c(=O)c(Nc3ccc(C4C(=O)N(C)CCN4C)cc3)n2)cccc1N1Cc2cc(C(C)(C)C)ccc2C1=O (stereo not drawn) ?
0.0294

What do you get for Cc1c(-c2cn(C)c(=O)c(Nc3ccc(C(=O)N4CCOCC4)cc3)n2)cccc1N1Cc2cc(C(C)(C)C)ccc2C1=O ?
0.0364

FYI, the data here is from ChEMBL document CHEMBL3886504.
